B1: LINE1-mini (parent)
chain: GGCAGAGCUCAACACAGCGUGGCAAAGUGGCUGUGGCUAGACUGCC

- Variants of: B1
- Experiment: self-cleavage, relative activity (ratio to wild type); higher = more cleavage; in vitro, sequencing; the parent is a self-cleaving ribozyme
Property measured: self-cleavage
Could you respond with only the numeric value?

Check out these entries, answers already filled in.
{"Mut": "C10U U20G", "Reported measurement": 0.18}
{"Mut": "C13U G33U", "Reported measurement": 0.06}
{"Mut": "G7A U9A", "Reported measurement": 0.3}
{"Mut": "A4G A16U", "Reported measurement": 0.16}
{"Mut": "A12G C23U", "Reported measurement": 0.03}
{"Mut": "A12U U28C", "Reported measurement": 0.6}
{"Mut": "U38C A39C", "Reported measurement": 0.1}
{"Mut": "G5A C18U", "Reported measurement": 0.14}

Any idea what self-cleavage was measured for G21U G44U ?
0.5

Any idea what self-cleavage was measured for C42G C46G ?
0.04

Any idea what self-cleavage was measured for C10G G35U ?
0.04

Any idea what self-cleavage was measured for A11G U38C ?
0.03

Any idea what self-cleavage was measured for A11G A12C ?
0.02

Any idea what self-cleavage was measured for G1A A26G ?
1.58

Any idea what self-cleavage was measured for G21C C31U ?
0.3

Any idea what self-cleavage was measured for G27U U38C ?
0.58

Any idea what self-cleavage was measured for G7U A16U ?
0.12

Any idea what self-cleavage was measured for A12G U34C ?
0.05

Any idea what self-cleavage was measured for C10U A16C ?
0.06

Any idea what self-cleavage was measured for U32G ?
0.19

Any idea what self-cleavage was measured for G29U C37A ?
0.13

Any idea what self-cleavage was measured for C10U A11G ?
0.05

Any idea what self-cleavage was measured for A4G G30C ?
0.91

Any idea what self-cleavage was measured for C42U U43G ?
0.15
